- target-entity: PGL-3 condensates (Caenorhabditis elegans, UniProt G5EBV6)
- assay-name: Fluorescence imaging of dye partitioning in PGL-3 condensates (I-in, I-out)
- Assay type: physicochemical
- recorded-conditions: inside PGL-3 condensate; 10 μM dye, 5 μM protein; image 2; one day of experiments
result-type: Intensity Inside with Dye 2

Consider the worked cases shown below.
>  <compound>
CCN(CC)c1ccc2c(-c3ccccc3C(=O)O)c3ccc(=[N+](CC)CC)cc-3oc2c1

>  <target-entity>
PGL-3 condensates (Caenorhabditis elegans, UniProt G5EBV6)

>  <observed-measurement>
6179.8

$$$$
>  <compound>
O=C(CCCC[C@@H]1SCC2NC(=O)NC21)NCCNC(=O)c1ccc(-c2c3ccc(=O)cc-3oc3ccc(O)cc23)c(C(=O)O)c1 (stereo partly shown)

>  <target-entity>
PGL-3 condensates (Caenorhabditis elegans, UniProt G5EBV6)

>  <observed-measurement>
3141.8

$$$$
>  <compound>
O=c1cc(C(F)(F)F)c2ccc(O)cc2o1 [Dye 2, 7-Hydroxy-4-(trifluoromethyl)-coumarin]

>  <target-entity>
PGL-3 condensates (Caenorhabditis elegans, UniProt G5EBV6)

>  <observed-measurement>
267.0

$$$$
>  <compound>
O=C(O)c1cc2cc3c4c(c2oc1=O)CCCN4CCC3

>  <target-entity>
PGL-3 condensates (Caenorhabditis elegans, UniProt G5EBV6)

>  <observed-measurement>
2006.3

$$$$
>  <compound>
N#CC1=c2cc3c4c(c2Oc2c1cc1c5c2CCCN5CCC1)CCC[N+]=4CCC3

>  <target-entity>
PGL-3 condensates (Caenorhabditis elegans, UniProt G5EBV6)

>  <observed-measurement>
700.1

$$$$

Hi! Can you tell me Intensity Inside with Dye 2 for each of these compounds?
1. O=C1OC2(c3ccc(O)cc3Oc3cc(O)ccc32)c2ccccc21
2. O=C1OC2(c3ccc(O[C@@H]4O[C@H](CO)[C@H](O)[C@H](O)[C@H]4O)cc3Oc3cc(O[C@@H]4O[C@H](CO)[C@H](O)[C@H](O)[C@H]4O)ccc32)c2ccccc21 [Dye 12, Fluorescein di(β-D-galacto-pyranoside)]

Return:
1: 4501.5; 2: 656.9

---

What Intensity Outside with Dye 3 was measured for each of the following?
- target-entity: PGL-3 condensates (Caenorhabditis elegans, UniProt G5EBV6)
- Sequence (G5EBV6 1-693): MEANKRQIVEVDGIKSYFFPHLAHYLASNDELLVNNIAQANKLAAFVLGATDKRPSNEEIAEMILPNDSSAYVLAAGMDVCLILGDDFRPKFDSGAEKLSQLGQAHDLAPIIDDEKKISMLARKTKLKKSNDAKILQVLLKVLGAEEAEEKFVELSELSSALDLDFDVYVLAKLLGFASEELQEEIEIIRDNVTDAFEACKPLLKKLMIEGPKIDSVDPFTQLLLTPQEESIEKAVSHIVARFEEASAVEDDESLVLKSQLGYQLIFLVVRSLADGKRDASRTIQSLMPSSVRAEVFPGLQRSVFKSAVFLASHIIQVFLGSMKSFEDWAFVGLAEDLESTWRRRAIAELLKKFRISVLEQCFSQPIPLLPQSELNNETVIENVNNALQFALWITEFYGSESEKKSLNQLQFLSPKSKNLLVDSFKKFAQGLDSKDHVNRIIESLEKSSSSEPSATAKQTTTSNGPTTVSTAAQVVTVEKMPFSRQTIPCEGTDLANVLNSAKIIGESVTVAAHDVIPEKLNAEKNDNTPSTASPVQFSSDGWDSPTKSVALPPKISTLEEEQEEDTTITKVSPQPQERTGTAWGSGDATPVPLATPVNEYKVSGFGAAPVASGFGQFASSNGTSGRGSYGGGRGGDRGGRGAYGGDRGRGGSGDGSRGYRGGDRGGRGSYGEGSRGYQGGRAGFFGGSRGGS
- assay-name: Fluorescence imaging of dye partitioning in PGL-3 condensates (I-in, I-out)
- Assay type: physicochemical
- recorded-conditions: outside PGL-3 condensate; 10 μM dye, 5 μM protein; image 3; one day of experiments
Counter-ions that a name gives are not always drawn.
Numbers only.

>  <molecule>
O=C([O-])c1ccccc1C1=c2cc3c4c(c2Oc2c1cc1c5c2CCCN5CCC1)CCC[N+]=4CCC3 [Dye 17, Rhodamine 101 inner salt]

>  <target-entity>
PGL-3 condensates (Caenorhabditis elegans, UniProt G5EBV6)

>  <observed-measurement>
7012.6

$$$$
>  <molecule>
CC(=O)N[C@H]1[C@H](Oc2ccc3c(c2)Oc2cc(O)ccc2C32OC(=O)c3ccccc32)O[C@H](CO)[C@H](O)[C@@H]1O (stereo partly drawn)

>  <target-entity>
PGL-3 condensates (Caenorhabditis elegans, UniProt G5EBV6)

>  <observed-measurement>
1353.5

$$$$
>  <molecule>
O=c1cc(C(F)(F)F)c2ccc(O)cc2o1 [Dye 2, 7-Hydroxy-4-(trifluoromethyl)-coumarin]

>  <target-entity>
PGL-3 condensates (Caenorhabditis elegans, UniProt G5EBV6)

>  <observed-measurement>
266.0

$$$$

Hi team, please reply with Intensity Outside with Dye 3 for each item in this list.
1. CCN(CC)c1ccc2c(-c3ccccc3C(=O)O)c3ccc(=[N+](CC)CC)cc-3oc2c1
2. O=C1OC2(c3ccc(O[C@@H]4O[C@H](CO)[C@H](O)[C@H](O)[C@H]4O)cc3Oc3cc(O[C@@H]4O[C@H](CO)[C@H](O)[C@H](O)[C@H]4O)ccc32)c2ccccc21 [Dye 12, Fluorescein di(β-D-galacto-pyranoside)]

Return:
[4131.5, 207.7]

Enquiry: Respond only with Intensity Outside with Dye 3 recorded for `O=C(O)c1cc2cc3c4c(c2oc1=O)CCCN4CCC3`
Return: 1461.1
